Assay: Cytotoxic activity on macrophages, alamar blue
Assay type: cell-based, mouse
Details: mouse, J774A monocyte macrophage cell line; J774 macrophages, 24 h; average and standard deviation of three assays
Parameter: CC90 at 24 h. Scope: all listed entries.

- molecule: "Cc1ccc(C(C)C)cc1O [Carvacrol]"
  CC90 at 24 h: "1950 µg/mL"
- molecule: "Cc1ccc(C(C)C)c(O)c1 [Thymol]"
  CC90 at 24 h: "1130 µg/mL"
- molecule: "CC1CCC(C(C)C)C(O)C1 (stereo not shown) [Menthol]"
  CC90 at 24 h: "2600 µg/mL"
- molecule: "Cc1ccc(C(C)C)cc1 [p-Cymene]"
  CC90 at 24 h: "2200 µg/mL"

---

Entries and their CC50 at 24 h
Experiment: Cytotoxic activity on macrophages, alamar blue
Format: cell-based, mouse
Conditions: mouse, J774A monocyte macrophage cell line; J774 macrophages, 24 h; average and standard deviation of three assays

- compound: "Cc1ccc(C(C)C)c(O)c1 [Thymol]"
  CC50 at 24 h, µg/mL: 483
- compound: "Cc1ccc(C(C)C)cc1 [p-Cymene]"
  CC50 at 24 h, µg/mL: 1170
- compound: "CC1CCC(C(C)C)C(O)C1 (stereo not shown) [Menthol]"
  CC50 at 24 h, µg/mL: 1450
- compound: "Cc1ccc(C(C)C)cc1O [Carvacrol]"
  CC50 at 24 h, µg/mL: 900

---

Tested on: Mycobacterium bovis AN5
Test: microbe, parasite or virus in culture
Format: cell-based
Details: Mycobacterium tuberculosis variant bovis, AN5, 168 h, read-out: Antimycobacterial activity, M. bovis MIC
// boundary case: MIC equal to 30 µg/mL maps to No; strictly smaller maps to Yes

- compound: "CC12CCC(CC1=O)C2(C)C (centres unmarked)"
  assigned label: "No"
- compound: "CC12CCC(CC1)C(C)(C)O2"
  assigned label: "No"
- compound: "C=C(C)[C@@H]1CC=C(C)C(=O)C1 [(+) Carvone]"
  assigned label: "No"
- compound: "CC1=CCC2C(C1)C2(C)C (centres unmarked)"
  assigned label: "No"
- compound: "CC1=CC=C(C(C)C)CC1"
  assigned label: "Yes"
- compound: "COc1ccc(C=O)cc1"
  assigned label: "Yes"
- compound: "C=C1CCC2CC1C2(C)C (centres unmarked)"
  assigned label: "No"
- compound: "C=CC(=C)CCC=C(C)C"
  assigned label: "No"

---

Test system: Mycobacterium bovis AN5
Experiment: microbe, parasite or virus in culture
Type: cell-based
Conditions: Mycobacterium tuberculosis variant bovis, AN5, 168 h, read-out: Antimycobacterial activity, M. bovis MIC
measured endpoint: log10 MIC (log10 of the value in µg/mL)

- compound: "C=CCc1ccc(O)c(OC)c1"
  assay target: "Mycobacterium bovis AN5"
  numeric value: 1.32
- compound: "C=C(C)[C@H]1CC=C(C)CC1 [(+) Limonene]"
  assay target: "Mycobacterium bovis AN5"
  numeric value: 1.62
- compound: "C=C1CCC2(C(C)C)CC12 (stereo not shown)"
  assay target: "Mycobacterium bovis AN5"
  numeric value: 1.40
- compound: "NNC(=O)c1ccncc1 [Isoniazid, reference compound]"
  assay target: "Mycobacterium bovis AN5"
  numeric value: -0.80
- compound: "O=C(O)/C=C/c1ccccc1"
  assay target: "Mycobacterium bovis AN5"
  numeric value: 0.86
- compound: "CC1CCC(C(C)C)C(O)C1 (stereo not shown)"
  assay target: "Mycobacterium bovis AN5"
  numeric value: 1.92
- compound: "CC1=CCC(=C(C)C)CC1"
  assay target: "Mycobacterium bovis AN5"
  numeric value: 1.52
- compound: "O=C/C=C/c1ccccc1"
  assay target: "Mycobacterium bovis AN5"
  numeric value: 1.10
- compound: "CC(C)=CCC/C(C)=C/CO"
  assay target: "Mycobacterium bovis AN5"
  numeric value: 1.10
- compound: "C=CC(C)(O)CCC=C(C)C (stereo not shown)"
  assay target: "Mycobacterium bovis AN5"
  numeric value: 1.62
- compound: "C=C1CC/C=C(\\C)CC[C@@H]2[C@@H]1CC2(C)C"
  assay target: "Mycobacterium bovis AN5"
  numeric value: 2.00
- compound: "CC(C)=CCCC(C)CCO (stereo not shown)"
  assay target: "Mycobacterium bovis AN5"
  numeric value: 1.02
- compound: "C/C=C/c1ccc(OC)cc1"
  assay target: "Mycobacterium bovis AN5"
  numeric value: 1.77

These measurements were taken from paper PMC4579641.
